IC50 by entry:
target: Delta-aminolevulinic acid dehydratase (Drosophila melanogaster, UniProt Q9VTV9); test: Inhibition of Drosophila melanogaster recombinant PBGS using 5-ALA as substrate
Sequence (Q9VTV9 whole entry): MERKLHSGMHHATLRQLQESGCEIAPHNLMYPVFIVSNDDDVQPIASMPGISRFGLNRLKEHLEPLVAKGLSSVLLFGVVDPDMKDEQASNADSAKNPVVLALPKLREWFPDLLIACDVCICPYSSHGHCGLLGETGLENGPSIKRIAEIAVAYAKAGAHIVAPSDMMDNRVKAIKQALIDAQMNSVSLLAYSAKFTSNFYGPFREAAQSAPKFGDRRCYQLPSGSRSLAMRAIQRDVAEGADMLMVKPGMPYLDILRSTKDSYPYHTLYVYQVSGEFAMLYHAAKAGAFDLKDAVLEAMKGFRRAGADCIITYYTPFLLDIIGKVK

Solved entries:
O=C(NCCc1nc2c(C(=O)O)cccc2n1Cc1cccc(C(F)(F)F)c1)c1cccs1    > 1000 µM
COc1cccc(Cn2cnc3cc(C(=O)O)ccc32)c1    370 µM
O=C(O)c1ccc2nc(CCNC(=O)c3cccs3)n(Cc3cccc(C(F)(F)F)c3)c2c1    257 µM
O=C(O)c1ccc2c(c1)nc(CCNC(=O)c1cccs1)n2Cc1ccc(C(F)(F)F)cc1    1010 µM
O=C(O)c1ccc2c(c1)ncn2Cc1ccccc1C(F)(F)F    > 1000 µM
Cc1cccc(Cn2cnc3cc(C(=O)O)ccc32)c1    371 µM
O=C(O)c1ccc2c(c1)ncn2Cc1ccccc1    1030 µM
Cn1cnc2cc(C(=O)O)ccc21    > 1000 µM
O=C(O)c1ccc2c(c1)ncn2Cc1ccc(C(F)(F)F)cc1    620 µM
O=C(NCCc1nc2cccc(C(=O)O)c2n1Cc1cccc(C(F)(F)F)c1)c1cccs1    > 1000 µM

From here, focus on the item given below.
Query: Lab note: Delta-aminolevulinic acid dehydratase (Drosophila melanogaster, UniProt Q9VTV9) assay, enter IC50 for `O=C(O)c1ccc2[nH]c(CCNC(=O)c3cccs3)nc2c1` here
Reply: 448 µM

###

biological target: Delta-aminolevulinic acid dehydratase (Homo sapiens, UniProt P13716); assay: Inhibition of human PBGS using 5-ALA as substrate
Sequence (P13716 whole entry): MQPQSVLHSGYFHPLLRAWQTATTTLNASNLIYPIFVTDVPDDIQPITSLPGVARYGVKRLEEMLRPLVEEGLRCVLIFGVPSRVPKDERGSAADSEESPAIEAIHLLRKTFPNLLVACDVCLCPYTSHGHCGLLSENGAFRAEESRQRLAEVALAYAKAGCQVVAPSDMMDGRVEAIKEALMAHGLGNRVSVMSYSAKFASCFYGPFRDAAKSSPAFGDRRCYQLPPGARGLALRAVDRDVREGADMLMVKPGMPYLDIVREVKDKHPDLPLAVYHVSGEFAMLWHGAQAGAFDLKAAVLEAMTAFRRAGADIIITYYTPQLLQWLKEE
valueType: pIC50
Units for pIC50: none; it is -log10 of a concentration expressed in mol/L.

Solved entries:
O=C(O)c1ccc2c(c1)nc(CCNC(=O)c1cccs1)n2Cc1ccc(C(F)(F)F)cc1    3.20
O=C(NCCc1nc2c(C(=O)O)cccc2n1Cc1cccc(C(F)(F)F)c1)c1cccs1    3.30

Query: Lab note: Delta-aminolevulinic acid dehydratase (Homo sapiens, UniProt P13716) assay, enter pIC50 for `O=C(O)c1ccc2[nH]cnc2c1` here
Reply: 3.29

###

pIC50 by entry:
biological target: Delta-aminolevulinic acid dehydratase (Drosophila melanogaster); assay: Inhibition of Drosophila melanogaster recombinant PBGS using 5-ALA as substrate
Units for pIC50: none; it is -log10 of a concentration expressed in mol/L.

O=C(O)c1ccc2c(c1)nc(CCNC(=O)c1cccs1)n2Cc1cccc(C(F)(F)F)c1    2.95

From here, focus on the item given below.
Query: Quick one: give measured pIC50 for `O=C(O)c1ccc2c(c1)ncn2Cc1cccc(C(F)(F)F)c1`
Reply: 3.47

###

system: Toxoplasma gondii; assay: Inhibition of Toxoplasma gondii recombinant PBGS using 5-ALA as substrate at […]
Calls of active or inactive are those of the source. The calls are words filed in the database; no cut-off is given here.
valueType: inhibition

Cc1cccc(Cn2cnc3cc(C(=O)O)ccc32)c1    inactive
O=C(O)c1ccc2[nH]c(CCNC(=O)c3cccs3)nc2c1    inactive
Cn1cnc2cc(C(=O)O)ccc21    inactive
O=C(O)c1ccc2c(c1)ncn2Cc1ccc(C(F)(F)F)cc1    inactive

From here, focus on the item given below.
Query: Lab note: Toxoplasma gondii assay, enter inhibition for `O=C(O)c1ccc2c(c1)ncn2Cc1cccc(C(F)(F)F)c1` here
Reply: inactive

###

target: Delta-aminolevulinic acid dehydratase (Homo sapiens); assay: Inhibition of human PBGS using 5-ALA as substrate
valueType: pIC50
Units for pIC50: none; it is -log10 of a concentration expressed in mol/L.

Solved entries:
O=C(O)c1ccc2c(c1)ncn2Cc1ccc(C(F)(F)F)cc1    3.76
O=C(O)c1ccc2c(c1)ncn2Cc1ccccc1C(F)(F)F    3.84
Cc1cccc(Cn2cnc3cc(C(=O)O)ccc32)c1    3.65
COc1cccc(Cn2cnc3cc(C(=O)O)ccc32)c1    3.81
O=C(O)c1ccc2c(c1)ncn2Cc1cccc(C(F)(F)F)c1    3.71

From here, focus on the item given below.
Query: Quick one: give measured pIC50 for `O=C(O)c1ccc2c(c1)ncn2Cc1ccccc1`
Reply: 3.67

Provenance of the data: ChEMBL document CHEMBL3286371
